pIC50: −log10 of the molar value.
Let's look at some pIC50 data for Serine/threonine-protein kinase B-raf (Homo sapiens) that I collected from the literature.

Please review the following examples before continuing.
- chemicalStructure: "N#Cc1cnc2[nH]cc(C(=O)c3cccc(NS(=O)(=O)c4cc(F)ccc4F)c3F)c2c1"
  resultValue: "> 7.00"
- chemicalStructure: "COc1ccc2c(c1)n(-c1cc(NC(=O)c3cccc(C(C)(C)C#N)c3)ccc1C)c(=O)n2C"
  resultValue: "< 7.00"
- chemicalStructure: "COc1cnc2[nH]cc(C(=O)c3cccc(NS(=O)(=O)c4cccnc4)c3)c2c1"
  resultValue: "≥ 5.00"
- chemicalStructure: "COc1ccc(-c2coc3ccc(-c4nnc(SC)o4)cc23)cc1"
  resultValue: "< 5.00"

Answer for every listed entry: what is its pIC50? The entries follow.
1. COc1ccnc2[nH]cc(C(=O)c3c(F)ccc(NS(=O)(=O)c4c(F)cccc4F)c3F)c12
2. Cn1cc(-c2cnc3[nH]cc(C(=O)c4cc(NS(=O)(=O)C5CCCCC5)ccc4F)c3c2)cn1
3. O=C(Nc1ccc(Oc2ncnc3cc(OCCCN4CCCC4)c4c(c23)OCCO4)cc1Cl)NC1CC1
4. COc1cnc2[nH]cc(C(=O)c3c(F)ccc(OCc4ccccc4)c3F)c2c1
5. CCCS(=O)(=O)Nc1ccc(F)c(C(=O)c2c[nH]c3nccc(OC)c23)c1F
6. CCCS(=O)(=O)Nc1ccc(F)c(C(=O)c2c[nH]c3ncc(CCC(=O)OC)cc23)c1F
7. COc1ccnc2[nH]cc(C(=O)c3c(F)ccc(NS(=O)(=O)N4CCOCC4)c3F)c12
8. CCCS(=O)(=O)Nc1ccc(F)c(C(=O)c2c[nH]c3ncc(C(F)(F)F)cc23)c1F

1. > 6.00
2. ≥ 5.00
3. < 6.00
4. ≥ 5.00
5. ≥ 5.00
6. ≥ 5.00
7. ≥ 5.00
8. ≥ 5.00
